system.under.test: T1, recombinant SARS-CoV-2 Spike RBD domain, Wuhan (SARS-CoV-2)
T1 construct: also called RBD Wuhan
protocol.details: ELISA on coated RBD
property.name: Binding AUC
No unit in the answer, only the number.

{"columns": ["binder", "reported"],
 "data": [
  ["SPK002M B2 antibody (antibody, human IgG1, kappa, V domains shown) VH: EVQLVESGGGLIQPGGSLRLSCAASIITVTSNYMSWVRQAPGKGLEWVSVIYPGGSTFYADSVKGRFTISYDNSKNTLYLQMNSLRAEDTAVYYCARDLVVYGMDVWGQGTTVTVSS VL: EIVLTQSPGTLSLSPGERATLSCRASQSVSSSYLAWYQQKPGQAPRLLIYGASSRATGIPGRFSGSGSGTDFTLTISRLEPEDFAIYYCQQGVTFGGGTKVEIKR", 31]
]}

Measured Binding AUC of SPK002M C2 antibody (antibody, human IgG1, kappa, V domains shown) VH: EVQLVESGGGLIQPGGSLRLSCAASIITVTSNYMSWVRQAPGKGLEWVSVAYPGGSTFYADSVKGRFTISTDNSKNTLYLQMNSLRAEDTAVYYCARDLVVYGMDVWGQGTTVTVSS VL: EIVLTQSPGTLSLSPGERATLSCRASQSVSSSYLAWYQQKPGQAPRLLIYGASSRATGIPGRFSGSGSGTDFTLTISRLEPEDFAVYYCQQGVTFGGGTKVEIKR : 32
